Taken from PubChem BioAssay (NCI).

Tested on: BT-549 breast
METHOD_DESCRIPTION: NCI-60 one-dose screen, 48 h (100 = growth as untreated, 0 = no growth, -100 = all killed)
CONDITIONS: 10 µM unless noted
This is part of a sample that, as a whole, favours compounds with a hit. Of some 83,000 tested, about 20% had one in any assay.
PROPERTY_NAME: growth (%)
Give just the numeric value; % need not be written.

# input Recall and state the measured growth for COc1cccc(N2CCN(c3ncnc4cc[nH]c34)CC2)c1 .
# output 42.9

# input Recall and state the measured growth for O/N=C/c1ccncc1 .
# output 117

# input Recall and state the measured growth for O=c1c2cc(Br)cc(Br)c2nc(-c2ccc(Cl)cc2)n1/N=C\c1ccccc1F .
# output 88.3

# input Recall and state the measured growth for CN(C)c1ccc(/C=C\c2cccc[n+]2C)cc1 .
# output 20.1

# input Recall and state the measured growth for CC1(C)OC2OC3C(CN)OC(c4ccccc4)OC3C2O1 (configuration not stated) .
# output 103

# input Recall and state the measured growth for CC(C)(c1ccccc1)c1cc(O)c(C(C)(C)c2ccccc2)cc1O .
# output 20.6

# input Recall and state the measured growth for CC1=CC(=O)OC1C/C=C(\C)CCC1[C@@]2(C)CCC[C@@](C)(C(=O)O)C2CC[C@@]1(C)O (some centres not stated) .
# output 67.3

# input Recall and state the measured growth for COc1cc2ccc(C(C)=O)cc2cc1OC .
# output 90.8

# input Recall and state the measured growth for O=C(c1ccccc1)C(CCc1ccccn1)CCc1ccccn1 .
# output 106

# input Recall and state the measured growth for ClC1(Cl)C2CCCCCCC21 (configuration not stated) .
# output 101

# input Recall and state the measured growth for CC(C)c1cccc(C#N)c1 .
# output 102

# input Recall and state the measured growth for Nc1ccc(C2=NNC(=O)Cc3cc4c(cc32)OCCO4)cc1Cl .
# output 48.5

====

Test system: TK-10 renal
METHOD_DESCRIPTION: NCI-60 one-dose screen, 48 h
CONDITIONS: 10 µM unless noted
Compounds without any hit were thinned out: in the full panel of roughly 83,000, 20% have a hit. Calls of active or inactive are those of the source. The calls were made as follows: active = growth percent below 10; inactive = the rest.
Bench note: report the call from Yes for active, No for inactive

# input Dear colleague, could you share the recorded outcome for N/N=C(\C(=N\N)c1ccccc1)c1ccccc1 when you have a moment?
# output No

# input Dear colleague, could you share the recorded outcome for CCOC(=O)Nc1ccc2nc(N3CCCCCC3)sc2c1 when you have a moment?
# output No

# input Dear colleague, could you share the recorded outcome for CC(C)(C)[Si](C)(C)OC1[C@@H](O[Si](C)(C)C(C)(C)C)[C@@H](CNC(=O)NC(=O)NC(=O)CCl)O[C@H]1n1cnc2c(NC(=O)Nc3ccccc3)ncnc21 (stereo not given in full) when you have a moment?
# output No

# input Dear colleague, could you share the recorded outcome for C=C1C(=O)O[C@H]2[C@H]1CC/C(COC(=O)N[C@@H](Cc1c[nH]c3ccccc13)C(=O)OC)=C\CC[C@@]1(C)O[C@@H]21 when you have a moment?
# output Yes

# input Dear colleague, could you share the recorded outcome for COc1cccc(/C=N\Nc2ccc([N+](=O)[O-])cn2)c1O when you have a moment?
# output No

# input Dear colleague, could you share the recorded outcome for COc1ccc(-c2nc3c(c(-c4ccc(Cl)cc4)nn3-c3ccccc3)c(-c3ccc(O)cc3)c2C#N)cc1 when you have a moment?
# output No

# input Dear colleague, could you share the recorded outcome for N#Cc1ccc(-c2ccc(-c3cccs3)o2)cc1F when you have a moment?
# output No

# input Dear colleague, could you share the recorded outcome for CCOC(=O)c1cc(C(=O)OCC)c(C)nc1C when you have a moment?
# output No

# input Dear colleague, could you share the recorded outcome for O=C(C(=O)N1CCCC1)c1cn(CCCn2cc(C(=O)C(=O)N3CCCC3)c3cc(Br)ccc32)c2ccc(Br)cc12 when you have a moment?
# output No

# input Dear colleague, could you share the recorded outcome for CC1=CC(=O)OC1C/C=C(\C)CCC1[C@@]2(C)CCC[C@@](C)(C(=O)O)C2CC[C@@]1(C)O (stereo not given in full) when you have a moment?
# output No

# input Dear colleague, could you share the recorded outcome for COc1ccc(/C=C/C(=O)CCC(=O)O)cc1OC when you have a moment?
# output No

# input Dear colleague, could you share the recorded outcome for COc1ccc(-c2ccc(-c3ccc(C(=N)N)s3)s2)cc1 when you have a moment?
# output Yes

# input Dear colleague, could you share the recorded outcome for CCN(CC)c1ccc(/C=N/NC(=O)C[N+](C)(C)C)cc1 when you have a moment?
# output No

# input Dear colleague, could you share the recorded outcome for C#Cc1cccc(Nc2nc3cc([N+](=O)[O-])ccc3nc2Nc2ccc(O)cc2)c1 when you have a moment?
# output Yes

# input Dear colleague, could you share the recorded outcome for CCCCc1nc(Cl)c(C2CC(c3ccc(S(N)(=O)=O)cc3)=NN2c2ccc(C#N)cc2)[nH]1 (stereo not given) when you have a moment?
# output No

# input Dear colleague, could you share the recorded outcome for C[C@@H]1N=C(c2ccc3ccccc3c2)Nc2nc3ccccn3c2C1=O when you have a moment?
# output No

# input Dear colleague, could you share the recorded outcome for CCCCCCCCCCCCCCCCCC(=O)OCCCCCCCCCCCCC when you have a moment?
# output No

# input Dear colleague, could you share the recorded outcome for Fc1ccc(-c2cnc3nonc3n2)c(F)c1 when you have a moment?
# output No

# input Dear colleague, could you share the recorded outcome for NS(=O)(=O)c1ccc(CCn2c(SCC(=O)N/N=C/c3ccccc3O)nc3ccccc3c2=O)cc1 when you have a moment?
# output No

# input Dear colleague, could you share the recorded outcome for COc1cc(OC)c(Cl)cc1N when you have a moment?
# output No

====

Tested on: IGROV1 ovarian
METHOD_DESCRIPTION: NCI-60 one-dose screen, 48 h
CONDITIONS: 10 µM unless noted
Compounds without any hit were thinned out: in the full panel of roughly 83,000, 20% have a hit. Activity calls are given as the source filed them. How the source made its calls: active means growth percent below 10; inactive means the rest.
Bench note: report the call from True = active, False = inactive

# input Dear colleague, could you share the recorded outcome for CCCCCCCCCCCC1=NC(C)(C)CN1CC(C)O (stereo unspecified) when you have a moment?
# output False

# input Dear colleague, could you share the recorded outcome for c1cc(C2CCCCC2)ccc1-c1cnc2nonc2n1 when you have a moment?
# output False

# input Dear colleague, could you share the recorded outcome for O=C(CC(=O)C(F)(F)C(F)(F)C(F)(F)F)c1cc2ccccc2o1 when you have a moment?
# output False

# input Dear colleague, could you share the recorded outcome for CCCCCCCCCCCCCC1=NC(C)(C)CN1C(C)C when you have a moment?
# output True

# input Dear colleague, could you share the recorded outcome for CS(=O)(=O)c1ccc(C(=O)N/N=C/c2cccc3ccccc23)cc1 when you have a moment?
# output False

# input Dear colleague, could you share the recorded outcome for CN(C)CC(=O)c1ccc2cc(Br)c3ccccc3c2c1 when you have a moment?
# output False

====

System: U251 CNS
METHOD_DESCRIPTION: NCI-60 one-dose screen, 48 h (100 = growth as untreated, 0 = no growth, -100 = all killed)
CONDITIONS: 10 µM unless noted
The panel holds about 83,000 compounds, 20% with a hit somewhere; the sample as a whole holds those more often.
For each record, write down the corresponding growth.
Give just the numeric value; % need not be written.

# input Recall and state the measured growth for O=C(Nc1ccc(-n2ccc3c(NC(=O)c4ccccc4)nccc32)cc1)c1ccc(N2CCOCC2)c(C(F)(F)F)c1 .
# output 14.4

# input Recall and state the measured growth for COc1cc(C2CC(c3ccccc3)=NN2C=O)ccc1Oc1ccnc2cc(Cl)ccc12 (stereo unspecified) .
# output 88.6

# input Recall and state the measured growth for Cc1cc(O)c2cc3c(O)c(O)ccc3cc2c1 .
# output 108

# input Recall and state the measured growth for CCNCCCn1c2c(c3ccc(Cl)cc3c1=O)C(=O)c1cc(OC)cnc1-2 .
# output -93.8

# input Recall and state the measured growth for COc1cc2ncnc(Nc3ccc(S(=O)(=O)Nc4cc(C)on4)cc3)c2cc1OCCCN1CCN(c2ccc([N+](=O)[O-])cc2)CC1 .
# output 97.1

# input Recall and state the measured growth for N=C(N)c1ccc(-c2ccc(-c3cccs3)s2)cc1F .
# output -86.6

# input Recall and state the measured growth for COc1cc(/C=C/c2cc(/C=C/c3ccc(O)c(OC)c3)n(C(=O)Nc3ccc(F)c(Cl)c3)n2)ccc1O .
# output -1.59

# input Recall and state the measured growth for COc1ccc2[nH]cc(C3(c4c[nH]c5ccc(OC)cc45)C(=O)Nc4ccc(F)cc43)c2c1 .
# output 82.5

# input Recall and state the measured growth for N/C(=N\OC(=O)c1ccccc1)C(Cc1ccccc1)C(=O)NOC(=O)c1ccccc1 (stereo unspecified) .
# output -71

# input Recall and state the measured growth for CCOC(=O)c1cc(C(=O)OCC)c(C)nc1C .
# output 103

# input Recall and state the measured growth for CC(C)(CCc1ccccn1)C(=O)CCCc1ccccn1 .
# output 100

# input Recall and state the measured growth for Cc1cc(-c2ccccc2)on1 .
# output 108

# input Recall and state the measured growth for CN(C)c1ccc(/C=C\c2cccc[n+]2C)cc1 .
# output 33

# input Recall and state the measured growth for CCOC(=O)c1ccc2c(c1)[n+](=O)c(C(=O)c1ccc3ccccc3c1)c(C(F)(F)F)n2[O-] .
# output -100

# input Recall and state the measured growth for CCCCCCCCCCCCC1CCC(=O)O1 (stereo unspecified) .
# output 101

# input Recall and state the measured growth for COc1cc([N+](=O)[O-])cc(OC)c1OC .
# output 106

# input Recall and state the measured growth for CC(C)OC1OC(OC(C)C)C(OC(C)C)OC1OC(C)C (stereo unspecified) .
# output 90.3

# input Recall and state the measured growth for CN(C)CC(=O)c1ccc2cc(Br)c3ccccc3c2c1 .
# output 53.3

# input Recall and state the measured growth for c1cc(C2CCCCC2)ccc1-c1cnc2nonc2n1 .
# output 21.6

# input Recall and state the measured growth for C=C1C(=O)O[C@H]2[C@H]1CC/C(COC(=O)N[C@@H](Cc1c[nH]c3ccccc13)C(=O)OC)=C\CC[C@@]1(C)O[C@@H]21 .
# output 25.3

# input Recall and state the measured growth for Clc1ccc(C2=NN[C@H](c3cn(-c4ccccc4)nc3-c3ccccc3)C2)cc1 .
# output 49.3
